# System: drug-resistant Mycobacterium tuberculosis 242 (isoniazid-resistant)
# protocol.details: microbe, parasite or virus in culture
# Type: cell-based
# condition.context: strain 242; relative to PA-824
parameter.measured: MIC value, times of that of the control drug PA-824, strain 242 (times)
Form entry: value (times) — number only.

Provide MIC value, times of that of the control drug PA-824, strain 242 value for the following molecule: O=[N+]([O-])c1cn2c(n1)OC[C@@H](NCc1ccc(N3CCN(c4ccc(OC(F)(F)F)cc4)CC3)nc1)C2 [Compound 4] 512

Provide MIC value, times of that of the control drug PA-824, strain 242 value for the following molecule: N#CC1(c2ccc(OC(F)(F)F)cc2)CCN(c2ccc(CN[C@@H]3COc4nc([N+](=O)[O-])cn4C3)cn2)CC1 [Compound 10] 512

Provide MIC value, times of that of the control drug PA-824, strain 242 value for the following molecule: O=[N+]([O-])c1cn2c(n1)OC[C@@H](NCc1cnc(N3CCN(c4ccc(OC(F)(F)F)cc4)CC3)nc1)C2 [Compound 18] 128

Provide MIC value, times of that of the control drug PA-824, strain 242 value for the following molecule: O=[N+]([O-])c1cn2c(n1)OC[C@@H](NCc1ccc(N3CCC(Oc4ccc(OC(F)(F)F)cc4)CC3)nc1)C2 [Compound 1] 128

Provide MIC value, times of that of the control drug PA-824, strain 242 value for the following molecule: N#CC1(c2ccc(OC(F)(F)F)cc2)CCN(c2ncc(CN[C@@H]3COc4nc([N+](=O)[O-])cn4C3)cn2)CC1 [Compound 24] 256

Provide MIC value, times of that of the control drug PA-824, strain 242 value for the following molecule: CC1CN(c2ccc(OC(F)(F)F)cc2)CCN1c1ncc(CN[C@@H]2COc3nc([N+](=O)[O-])cn3C2)cn1 (stereo partly shown) [Compound 20] 512

Provide MIC value, times of that of the control drug PA-824, strain 242 value for the following molecule: CN(Cc1cnc(N2CCN(c3ccc(OC(F)(F)F)cc3)CC2)nc1)[C@@H]1COc2nc([N+](=O)[O-])cn2C1 [Compound 44] 512

Provide MIC value, times of that of the control drug PA-824, strain 242 value for the following molecule: CC1CN(c2ncc(CN[C@@H]3COc4nc([N+](=O)[O-])cn4C3)cn2)CCN1c1ccc(OC(F)(F)F)cc1 (stereo partly shown) [Compound 19] 128

Provide MIC value, times of that of the control drug PA-824, strain 242 value for the following molecule: N#Cc1nc(N2CCN(c3ccc(OC(F)(F)F)cc3)CC2)ncc1CN[C@@H]1COc2nc([N+](=O)[O-])cn2C1 [Compound 40] 128

Provide MIC value, times of that of the control drug PA-824, strain 242 value for the following molecule: Cc1nc(N2CCN(c3ccc(OC(F)(F)F)cc3)CC2)ncc1CN[C@@H]1COc2nc([N+](=O)[O-])cn2C1 [Compound 36] 128

----------
# Tested on: drug-resistant Mycobacterium tuberculosis 246 (streptomycin-resistant)
# protocol.details: microbe, parasite or virus in culture
# Format: cell-based
# condition.context: strain 246; relative to PA-824
parameter.measured: MIC value, times of that of the control drug PA-824, strain 246 (times)
Form entry: value (times) — number only.

Provide MIC value, times of that of the control drug PA-824, strain 246 value for the following compound: CN(Cc1cnc(N2CCN(c3ccc(OC(F)(F)F)cc3)CC2)nc1)[C@@H]1COc2nc([N+](=O)[O-])cn2C1 256

Provide MIC value, times of that of the control drug PA-824, strain 246 value for the following compound: O=[N+]([O-])c1cn2c(n1)OC[C@@H](NCc1ccc(N3CCN(c4ccc(OC(F)(F)F)cc4)CC3)nc1)C2 256

Provide MIC value, times of that of the control drug PA-824, strain 246 value for the following compound: Cc1nc(N2CCN(c3ccc(OC(F)(F)F)cc3)CC2)ncc1CN[C@@H]1COc2nc([N+](=O)[O-])cn2C1 64

Provide MIC value, times of that of the control drug PA-824, strain 246 value for the following compound: O=[N+]([O-])c1cn2c(n1)OC[C@@H](NCc1cnc(N3CCN(c4ccc(OC(F)(F)F)cc4)CC3)nc1)C2 64

Provide MIC value, times of that of the control drug PA-824, strain 246 value for the following compound: O=[N+]([O-])c1cn2c(n1)OC[C@@H](NCc1ccc(N3CCC(Oc4ccc(OC(F)(F)F)cc4)CC3)nc1)C2 64

Provide MIC value, times of that of the control drug PA-824, strain 246 value for the following compound: CC1CN(c2ccc(OC(F)(F)F)cc2)CCN1c1ncc(CN[C@@H]2COc3nc([N+](=O)[O-])cn3C2)cn1 (stereo partly drawn) 256

----------
# System: drug-resistant Mycobacterium tuberculosis 246 (streptomycin-resistant)
# protocol.details: microbe, parasite or virus in culture
# Format: cell-based
# condition.context: strain 246; relative to PA-824
parameter.measured: MIC value, times of that of the control drug PA-824, strain 246 (times)
Form entry: value (times) — number only.

Provide MIC value, times of that of the control drug PA-824, strain 246 value for the following compound: N#CC1(c2ccc(OC(F)(F)F)cc2)CCN(c2ccc(CN[C@@H]3COc4nc([N+](=O)[O-])cn4C3)cn2)CC1 [Compound 10] 256

Provide MIC value, times of that of the control drug PA-824, strain 246 value for the following compound: CC1CN(c2ncc(CN[C@@H]3COc4nc([N+](=O)[O-])cn4C3)cn2)CCN1c1ccc(OC(F)(F)F)cc1 (stereo partly shown) [Compound 19] 64

Provide MIC value, times of that of the control drug PA-824, strain 246 value for the following compound: N#Cc1nc(N2CCN(c3ccc(OC(F)(F)F)cc3)CC2)ncc1CN[C@@H]1COc2nc([N+](=O)[O-])cn2C1 [Compound 40] 64

Provide MIC value, times of that of the control drug PA-824, strain 246 value for the following compound: N#CC1(c2ccc(OC(F)(F)F)cc2)CCN(c2ncc(CN[C@@H]3COc4nc([N+](=O)[O-])cn4C3)cn2)CC1 [Compound 24] 128

Reference for the values: patent US20170334927A1
